Data origin, for the record: paper PMC8364686

- EXPERIMENT SUMMARY: Plasma pharmacokinetics of BI 187004 after single oral doses (LC–MS/MS)
- RUN CONDITIONS: male, human, plasma, po, 10 mg, Plasma concentration Median, 10 mg single oral; 48 h
READOUT: concentration at 48 h

*Q* Given the entry `N#Cc1ccc2c(c1)[C@H]1CCCN(C(=O)c3ccc4[nH]cnc4c3)[C@H]1C2` , report its measured concentration at 48 h.
*A* 22.4 nM

====

- EXPERIMENT SUMMARY: Plasma pharmacokinetics of BI 187004 after single oral doses (LC–MS/MS)
- RUN CONDITIONS: male, human, plasma, po, 10 mg, Plasma concentration Mean, 10 mg single oral; 6 h
READOUT: concentration at 6 h (nM)
Please give a number only; it is taken to be in nM.

*Q* Given the entry `N#Cc1ccc2c(c1)[C@H]1CCCN(C(=O)c3ccc4[nH]cnc4c3)[C@H]1C2` , report its measured concentration at 6 h.
*A* 260
